target.or.test.system: TRKC (Homo sapiens, UniProt Q16288)
Sequence (Q16288 32-839): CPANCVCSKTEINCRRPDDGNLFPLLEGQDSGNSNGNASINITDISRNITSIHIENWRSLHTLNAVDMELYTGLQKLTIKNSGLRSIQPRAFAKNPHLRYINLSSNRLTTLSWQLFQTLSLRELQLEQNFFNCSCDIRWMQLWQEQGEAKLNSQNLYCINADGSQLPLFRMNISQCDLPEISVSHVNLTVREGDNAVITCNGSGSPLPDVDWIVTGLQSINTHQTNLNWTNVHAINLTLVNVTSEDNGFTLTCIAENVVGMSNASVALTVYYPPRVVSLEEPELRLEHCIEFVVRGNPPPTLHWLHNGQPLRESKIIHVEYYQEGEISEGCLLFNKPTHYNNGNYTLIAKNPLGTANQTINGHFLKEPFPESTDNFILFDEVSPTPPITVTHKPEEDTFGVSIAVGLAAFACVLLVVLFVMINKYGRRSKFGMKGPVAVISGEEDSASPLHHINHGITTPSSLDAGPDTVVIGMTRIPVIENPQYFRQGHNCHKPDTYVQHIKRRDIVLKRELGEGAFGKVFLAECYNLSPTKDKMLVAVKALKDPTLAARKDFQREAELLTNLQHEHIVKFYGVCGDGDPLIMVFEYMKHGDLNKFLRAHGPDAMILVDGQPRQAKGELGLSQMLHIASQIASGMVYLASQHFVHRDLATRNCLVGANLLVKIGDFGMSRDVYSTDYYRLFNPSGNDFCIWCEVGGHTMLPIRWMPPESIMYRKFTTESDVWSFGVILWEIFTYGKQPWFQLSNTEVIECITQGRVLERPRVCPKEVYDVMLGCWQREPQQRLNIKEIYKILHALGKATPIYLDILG
Quick reference for log10 of IC50 among some compounds
observed.property: log10 of IC50 (log10 of the value in µM)

> print(dat)
                                    compound  readout.number
 1  Fc1ccc(F)c(Cc2ccc3[nH]nc(/C=C/c4ccccn4)c3c2)c1           -2.27
 2  COc1cccc(Cc2ccc3[nH]nc(/C=C/c4ccccn4)c3c2)c1 [DYX-135X]           -1.65
 3  Fc1cc(F)cc(Nc2ccc3[nH]nc(/C=C/c4ccccn4)c3c2)c1           -0.65
 4  COc1cccc(Cc2ccc3[nH]nc(C#Cc4ccccn4)c3c2)c1 [DYX-135Q]           -0.68
 5  Fc1ccccc1Cc1ccc2[nH]nc(/C=C/c3ccccn3)c2c1           -1.92
 6  CN(c1cc(F)cc(F)c1)c1ccc2[nH]nc(/C=C/c3ccccn3)c2c1           -1.74
 7  O=C(Nc1ccc2[nH]nc(/C=C/c3ccccn3)c2c1)c1cc(F)cc(F)c1           -0.65
 8  Clc1cccc(Cc2ccc3[nH]nc(C#Cc4ccccn4)c3c2)c1 [DYX-134Q]           -1.39
 9  CN(c1cc(F)cc(F)c1)c1ccc2[nH]nc(C#Cc3ccccn3)c2c1           -0.63
10  Cc1cccc(Cc2ccc3[nH]nc(C#Cc4ccccn4)c3c2)c1 [DYX-137Q]           -1.04
11  O=C(Nc1cc(F)cc(F)c1)c1ccc2[nH]nc(/C=C/c3ccccn3)c2c1           -0.27
12  Fc1ccc(F)c(CNc2ccc3[nH]nc(/C=C/c4ccccn4)c3c2)c1 [DYX-216A]           -2.89
13  Fc1cc(F)cc(OCc2ccc3[nH]nc(/C=C/c4ccccn4)c3c2)c1           -2.19
14  Fc1cccc(Cc2ccc3[nH]nc(C#Cc4ccccn4)c3c2)c1F           -1.39
15  FC(F)(F)c1cccc(Cc2ccc3[nH]nc(/C=C/c4ccccn4)c3c2)c1 [DYX-138X]           -0.58
16  C(=C\c1n[nH]c2ccc(Cc3ccccc3)cc12)/c1ccccn1           -2.01
